This section presents compounds with their documented efficacy in % values.
test system: armyworm (Spodoptera frugiperda); assay: Spodoptera frugiperda test (SPODFR spray treatment), Example 15; format: in vivo; settings: application rate 100 g/ha, maize leaf discs sprayed, after 7 days

compound	readingUnit	efficacy in %
O=C(/C=C/c1ccc(CNc2cc(Cl)ccn2)c(C(F)(F)F)c1)NC(c1cccc(C(F)(F)F)c1)C(F)(F)F (centres unmarked)	%	100
N#Cc1ccc(NC(=O)c2ccc(/C=C/C(=O)NC(c3cccc(C(F)(F)F)c3)C(F)(F)F)cc2C(F)(F)F)nc1 (racemic)	%	100
O=C(/C=C/c1ccc(C(=O)Nc2ccncn2)c(C(F)(F)F)c1)NC(c1cccc(C(F)(F)F)c1)C(F)(F)F (centres unmarked)	%	100
C#CC(C)NC(=O)c1ccc(/C=C/C(=O)NC(c2cccc(C(F)(F)F)c2)C(F)(F)F)cc1C(F)(F)F (centres unmarked)	%	100
O=C(/C=C/c1ccc(C(=O)NC(CF)CF)c(Br)c1)NC(c1cccc(C(F)(F)F)c1)C(F)(F)F (centres unmarked)	%	83

----------
assay: logP by HPLC on reverse-phase column (EEC Directive 79/831 Annex V.A8); assay type: physicochemical; conditions: reverse-phase C18 HPLC column, pH 2.7, HPLC, C18 reverse phase, 43° C., acidic range pH 2.7, calibration with alkan-2-ones

compound	chromatographic logP
CC(=O)NC1CCc2cc(/C=C/C(=O)NC(c3cccc(C(F)(F)F)c3)C(F)(F)F)ccc21 (stereo not shown) [Ie-1]	3
CCOC(=O)c1cc(I)c(N)cc1Cl [Ethyl 4-amino-2-chloro-5-iodobenzoate]	2.95
NC(c1cc(Cl)cc(C(F)(F)F)c1)C(F)(F)F (stereo not shown)	2.94
O=C(NC(c1cccc(C(F)(F)F)c1)C(F)(F)F)c1cc2cc(C(=O)NC3CC3)c(Cl)cc2[nH]1 (stereo not shown) [Ic-24]	3.08
